target-desc: W741L-AR (Homo sapiens, UniProt P10275, W742L)
Construct: expressed in transfected cells; host or cells: PC-3
Sequence (P10275 1-920 W742L): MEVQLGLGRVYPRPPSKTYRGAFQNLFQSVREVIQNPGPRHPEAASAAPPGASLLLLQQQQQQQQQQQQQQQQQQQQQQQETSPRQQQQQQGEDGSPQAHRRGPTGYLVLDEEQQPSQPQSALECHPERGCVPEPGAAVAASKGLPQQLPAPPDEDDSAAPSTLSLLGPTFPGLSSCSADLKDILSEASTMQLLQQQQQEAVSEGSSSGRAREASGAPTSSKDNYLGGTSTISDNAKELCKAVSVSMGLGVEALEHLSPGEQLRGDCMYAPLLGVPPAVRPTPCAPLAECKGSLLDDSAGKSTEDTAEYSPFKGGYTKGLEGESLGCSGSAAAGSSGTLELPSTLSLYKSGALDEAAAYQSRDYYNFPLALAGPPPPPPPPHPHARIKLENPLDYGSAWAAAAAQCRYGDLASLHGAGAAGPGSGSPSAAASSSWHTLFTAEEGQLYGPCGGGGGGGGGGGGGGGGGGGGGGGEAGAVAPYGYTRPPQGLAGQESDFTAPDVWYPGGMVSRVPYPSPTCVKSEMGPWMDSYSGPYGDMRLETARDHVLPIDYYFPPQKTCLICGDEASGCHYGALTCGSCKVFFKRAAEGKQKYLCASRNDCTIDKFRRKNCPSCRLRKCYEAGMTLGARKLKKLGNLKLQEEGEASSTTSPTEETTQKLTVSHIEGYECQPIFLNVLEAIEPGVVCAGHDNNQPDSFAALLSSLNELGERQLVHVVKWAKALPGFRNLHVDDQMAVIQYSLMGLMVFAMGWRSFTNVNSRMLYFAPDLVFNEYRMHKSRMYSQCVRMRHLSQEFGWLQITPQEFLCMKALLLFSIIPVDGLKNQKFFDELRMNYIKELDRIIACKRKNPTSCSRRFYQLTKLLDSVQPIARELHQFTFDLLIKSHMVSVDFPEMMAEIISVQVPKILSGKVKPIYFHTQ
experiment-summary: mammalian two-hybrid (MM2H) assay, peptide interaction with W741L-AR
Type: cell-based
experimental-context: PC-3 cells; CDX = 10 µM; Gal-4 = 1
Ends that are not written are not given here.
I'd appreciate it if you could supply W741L-AR CDX, peptide-AR interaction in MM2H assay values for the items below.
Reply: number alone, nothing else.

Query block: Fill in the recorded W741L-AR CDX, peptide-AR interaction in MM2H assay for this substance, with W741L-AR (Homo sapiens, UniProt P10275, W742L) as test system: C8-FY: phage display screened peptide GD-FKSFY-LATTW (GDFKSFYLATTW; also: fused to Gal4 DNA-binding domain, end not given here)
Result block: 86

Query block: Could you share what W741L-AR CDX, peptide-AR interaction in MM2H assay was measured for C414-FY: phage display screened peptide NPSSM-FEKFY-LR (NPSSMFEKFYLR; also: fused to Gal4 DNA-binding domain, end not given here) , tested on W741L-AR (Homo sapiens, UniProt P10275, W742L)?
Result block: 532

Query block: Query W741L-AR CDX, peptide-AR interaction in MM2H assay on W741L-AR (Homo sapiens, UniProt P10275, W742L) for RIP-p: short peptide of novel AR coregulator candidate RIPK1, GIEEK-FRPFY-LSQLE (GIEEKFRPFYLSQLE; also: fused to Gal4 DNA-binding domain (not in chain))
Result block: 554

Query block: What W741L-AR CDX, peptide-AR interaction in MM2H assay appears in the records for this substance with W741L-AR (Homo sapiens, UniProt P10275, W742L)? C1-FY: phage display screened peptide SYT-FNQFY-YSTA (SYTFNQFYYSTA; also: fused to Gal4 DNA-binding domain, end not given here)
Result block: 511

Query block: API: value(readout= W741L-AR CDX, peptide-AR interaction in MM2H assay, system= W741L-AR (Homo sapiens, UniProt P10275, W742L), query= C315-FY: phage display screened peptide APSLNR-FATFY-H (APSLNRFATFYH; also: fused to Gal4 DNA-binding domain, end not given here) )
Result block: 2

Query block: Missing value: W741L-AR CDX, peptide-AR interaction in MM2H assay, W741L-AR (Homo sapiens, UniProt P10275, W742L), entry C4-FY: phage display screened peptide SPL-FSSFY-HART (SPLFSSFYHART; also: fused to Gal4 DNA-binding domain, end not given here) . Fill in?
Result block: 114

Query block: Quick check: W741L-AR CDX, peptide-AR interaction in MM2H assay on W741L-AR (Homo sapiens, UniProt P10275, W742L), item C412-FY: phage display screened peptide APSDTY-FQRFY-R (APSDTYFQRFYR; also: fused to Gal4 DNA-binding domain, end not given here) ?
Result block: 2

Query block: Value wanted: W741L-AR CDX, peptide-AR interaction in MM2H assay (W741L-AR (Homo sapiens, UniProt P10275, W742L)) of entry CA9-FY: phage display screened peptide SL-FTSFY-TGSGS (SLFTSFYTGSGS; also: fused to Gal4 DNA-binding domain, end not given here)
Result block: 190

Query block: Can you look up W741L-AR CDX, peptide-AR interaction in MM2H assay on W741L-AR (Homo sapiens, UniProt P10275, W742L) for CA-10-FY: phage display screened peptide EHSM-FHSFY-VQG (EHSMFHSFYVQG; also: fused to Gal4 DNA-binding domain, end not given here) ?
Result block: 14

Query block: Item: #3-18: positive control peptide NTNA-FSRLF-YPS (NTNAFSRLFYPS; also: fused to Gal4 DNA-binding domain, end not given here) [reference compound] Test system: W741L-AR (Homo sapiens, UniProt P10275, W742L) Read-out: W741L-AR CDX, peptide-AR interaction in MM2H assay Value: ?
Result block: 128

Query block: Value wanted: W741L-AR CDX, peptide-AR interaction in MM2H assay (W741L-AR (Homo sapiens, UniProt P10275, W742L)) of entry CON-1: negative control peptide MYKP-HNHHQ-TSS (MYKPHNHHQTSS; also: fused to Gal4 DNA-binding domain (not in chain)) [reference compound]
Result block: 1

Query block: Param readout= W741L-AR CDX, peptide-AR interaction in MM2H assay; system= W741L-AR (Homo sapiens, UniProt P10275, W742L); entry= C411-FY: phage display screened peptide NDTPVK-FAHFY-H (NDTPVKFAHFYH; also: fused to Gal4 DNA-binding domain, end not given here) ; returns value.
Result block: 3
